Tested on: STAPHYLOCOCCUS AUREUS CMX 553
Experiment: In vitro assay of antibacterial activity (agar dilution MIC)
Type: cell-based
Conditions: BHI agar, 35-37 °C for 20 to 24 hours, unit assumed
Entries and their Antibacterial Activity (MIC's) values follow.
Observed property: Antibacterial Activity (MIC's) (µg/mL)

CC[C@H]1OC(=O)[C@H](C)C(=O)[C@H](C)[C@@H](O[C@@H]2O[C@H](C)C[C@H](N(C)C)[C@H]2O)[C@](C)(OC)C[C@@H](C)C2Nc3ccccc3N3C(=O)O[C@@]1(C)[C@H]3[C@H]2C (single isomer, unassigned) [Ex 3]; 50
CC[C@H]1OC(=O)[C@H](C)C(=O)[C@H](C)[C@@H](O[C@@H]2O[C@H](C)C[C@H](N(C)C)[C@H]2O)[C@](C)(OC)C[C@@H](C)C2=Nc3cc(OC)ccc3N3C(=O)O[C@@]1(C)[C@H]3[C@H]2C [Ex 5]; 0.78
CC[C@H]1OC(=O)[C@H](C)C(=O)[C@H](C)[C@@H](O[C@@H]2O[C@H](C)C[C@H](N(C)C)[C@H]2O)[C@](C)(OC)C[C@@H](C)C2=Nc3cccnc3N3C(=O)O[C@@]1(C)[C@H]3[C@H]2C [Ex 7]; 0.39
CC[C@H]1OC(=O)[C@H](C)C(=O)[C@H](C)[C@@H](O[C@@H]2O[C@H](C)C[C@H](N(C)C)[C@H]2O)[C@](C)(OC)C[C@@H](C)C2=Nc3cc(C#N)ccc3N3C(=O)O[C@@]1(C)[C@H]3[C@H]2C [Ex 6]; 0.39

* * *

Test system: N. ASTEROIDES ATCC 9970
Experiment: In vitro assay of antibacterial activity (agar dilution MIC)
Assay type: cell-based
Settings: BHI agar, 35-37 °C for 20 to 24 hours, unit assumed
Entries and their Antibacterial Activity (MIC's) values follow.
Observed property: Antibacterial Activity (MIC's) (µg/mL)

CC[C@H]1OC(=O)[C@H](C)C(=O)[C@H](C)[C@@H](O[C@@H]2O[C@H](C)C[C@H](N(C)C)[C@H]2O)[C@](C)(OC)C[C@@H](C)C2=Nc3cc(OC)ccc3N3C(=O)O[C@@]1(C)[C@H]3[C@H]2C [Ex 5]; 0.2
C=CCO[C@]1(C)C[C@@H](C)C2=Nc3ccccc3N3C(=O)O[C@](C)([C@@H](CC)OC(=O)[C@H](C)C(=O)[C@H](C)[C@H]1O[C@@H]1O[C@H](C)C[C@H](N(C)C)[C@H]1O)[C@H]3[C@H]2C [Ex 8]; 3.1
CC[C@H]1OC(=O)[C@H](C)C(=O)[C@H](C)[C@@H](O[C@@H]2O[C@H](C)C[C@H](N(C)C)[C@H]2O)[C@](C)(OC)C[C@@H](C)C2=Nc3cc(C#N)ccc3N3C(=O)O[C@@]1(C)[C@H]3[C@H]2C [Ex 6]; 0.39
CC[C@H]1OC(=O)[C@H](C)C(=O)[C@H](C)[C@@H](O[C@@H]2O[C@H](C)C[C@H](N(C)C)[C@H]2O)[C@](C)(OC)C[C@@H](C)C2Nc3ccccc3N3C(=O)O[C@@]1(C)[C@H]3[C@H]2C (single isomer, unassigned) [Ex 3]; 6.2
